- Test system: Escherichia coli
- experiment_summary: In vitro dissociation constant of compound required for inhibition of Escherichia coli translation was determined
- Assay type: functional, organism-based
endpoint_label: IC50 (µM)

Q: Item under review: CN(C)CCCOc1ccc(C(NC(=O)c2ccc(-c3cccc(NC(=O)c4cnccn4)c3)o2)C(=O)N2CCNCC2)cc1 (stereo not given) . Reported IC50?
A: 15

[A] CN(C)CCCOc1ccc(C(NC(=O)c2ccc(-c3cccc(NC(=O)c4ccc5nc(O)c(O)nc5c4)c3)o2)C(N)=O)cc1 (stereo not given)
[B] CN(C)CCCOc1ccc(C(NC(=O)c2ccc(-c3cccc(NS(=O)(=O)c4ccc5nc(O)c(O)nc5c4)c3)o2)C(=O)N2CCNCC2)cc1 (stereo not given)
[C] CN(C)CCCOc1ccc(C(NC(=O)c2ccc(-c3cccc(NC(=O)c4ccc5cc(Br)ccc5c4)c3)o2)C(=O)N2CCNCC2)cc1 (stereo not given)
[D] Cc1cc(Cl)c2cc(C(=O)Nc3cccc(-c4ccc(C(=O)NC(C(=O)N5CCNCC5)c5ccc(OCCCN(C)C)cc5)o4)c3)ccc2n1 (stereo not given)
Q: Exam item: list the entries in increasing order of IC50. Form field (ranking): labels in requested order.
A: D, C, A, B
(D: 2 µM, C: 5 µM, A: 10 µM, B: 33 µM)

From: ChEMBL document CHEMBL1137914
